Numbers sourced from paper PMC11992225.

Fluorescence intensity (RFU), Mean, 0.0625 x MIC listing for selected compounds.
Test system: intracellular S. flexneri 5a M90T in TC7 cells
Test: microbe, parasite or virus in culture
Assay type: cell-based, Shigella flexneri
Settings: TC7 cells infected with GFP-expressing S. flexneri, 14 h treatment, 0.0625 x MIC
Hi! Could you send only the number? It should be in RFU, unit omitted.

Below, 2 compounds whose answers are already recorded.
1. CC[C@H]1OC(=O)[C@@](C)(F)C(=O)[C@H](C)[C@@H](O[C@@H]2O[C@H](C)C[C@H](N(C)C)[C@H]2O)[C@](C)(OC)C[C@@H](C)C(=O)[C@H](C)[C@H]2N(CCCCn3cc(-c4cccc(N)c4)nn3)C(=O)O[C@]12C [Solithromycin] = 9882.71
2. CO[C@H]1/C=C/O[C@@]2(C)Oc3c(C)c(O)c4c(O)c(c(/C=N/N5CCN(C)CC5)c(O)c4c3C2=O)NC(=O)/C(C)=C\C=C\[C@H](C)[C@H](O)[C@@H](C)[C@@H](O)[C@@H](C)[C@H](OC(C)=O)[C@@H]1C [Rifampicin] = 10229.8

Let us examine a further case.
-- ask Value lookup for Fluorescence intensity (RFU), Mean, 0.0625 x MIC; key = CO[C@H]1/C=C/O[C@@]2(C)Oc3c(C)c(O)c4c(O)c(c(/C=N/N5CCN(C6CCCC6)CC5)c(O)c4c3C2=O)NC(=O)/C(C)=C\C=C\[C@H](C)[C@H](O)[C@@H](C)[C@@H](O)[C@@H](C)[C@H](OC(C)=O)[C@@H]1C [Rifapentine]
-- reply 10012.8
